# Tested on: Salmonella typhimurium
# METHOD_DESCRIPTION: Mutagenic activity in Salmonella Typhimurium TA98 assessed as number of his+ revertants at 100 ug/plate after 48 to 72 hrs by Ames test in presence of S9 fraction
# Assay type: toxicity, organism-based
# RUN_PARAMETERS: salmonella enterica subsp. enterica serovar typhimurium
PROPERTY_NAME: Activity
Output spec: single numeric token, no unit.

Task: Fill in: Activity of "C/C=C/c1cc(OC)c(OC)c(OC)c1" is ___
Result: 30

Task: Which measured Activity value corresponds to "C/C=C/c1c(OC)cc(OC)cc1OC" ?
Result: 24

Task: Item "C/C=C/c1c(OC)ccc(OC)c1OC.CC(C)CCC[C@@H](C)[C@H]1CC[C@H]2[C@@H]3CC=C4C[C@@H](O)CC[C@]4(C)[C@H]3CC[C@]12C" has what recorded Activity?
Result: 35

Task: Tell me the measured Activity of "C/C=C/c1ccc(OC)c(OC)c1OC" , please.
Result: 44

----------
# Test system: Salmonella typhimurium
# METHOD_DESCRIPTION: Mutagenic activity in Salmonella Typhimurium TA98 assessed as number of his+ revertants at 500 ug/plate after 48 to 72 hrs by Ames test in absence of S9 fraction
# Assay type: toxicity, organism-based
# RUN_PARAMETERS: salmonella enterica subsp. enterica serovar typhimurium
PROPERTY_NAME: Activity

Task: Requested read-out Activity, target or system Salmonella typhimurium, entry "C/C=C/c1c(OC)cc(OC)cc1OC"
Result: 32

Task: Given the entry "C/C=C/c1cc(OC)c(OC)c(OC)c1" , what Activity was observed with Salmonella typhimurium?
Result: 24

Task: Record "C/C=C/c1c(OC)ccc(OC)c1OC.CC(C)CCC[C@@H](C)[C@H]1CC[C@H]2[C@@H]3CC=C4C[C@@H](O)CC[C@]4(C)[C@H]3CC[C@]12C" : what is its Activity with Salmonella typhimurium?
Result: 26

Task: Query Activity on Salmonella typhimurium for "C/C=C/c1ccc(OC)c(OC)c1OC"
Result: 22

----------
# Test system: Salmonella typhimurium
# METHOD_DESCRIPTION: Mutagenic activity in Salmonella Typhimurium TA97 assessed as number of his+ revertants at 100 ug/plate after 48 to 72 hrs by Ames test in absence of S9 fraction
# Format: toxicity, organism-based
# RUN_PARAMETERS: salmonella enterica subsp. enterica serovar typhimurium
PROPERTY_NAME: Activity
Returns: the value as a bare number; no unit string appended.

Task: Given "C/C=C/c1cc(OC)c(OC)c(OC)c1" , state its recorded Activity.
Result: 109

Task: Look up Activity: "C/C=C/c1ccc(OC)c(OC)c1OC"
Result: 151

Task: Recorded Activity of "C/C=C/c1c(OC)cc(OC)cc1OC" , please.
Result: 163
